# measured on: NHERF4_1, Q86UT5-2
# Sequence (Q86UT5 other isoform, or with tags, fused parts or gaps): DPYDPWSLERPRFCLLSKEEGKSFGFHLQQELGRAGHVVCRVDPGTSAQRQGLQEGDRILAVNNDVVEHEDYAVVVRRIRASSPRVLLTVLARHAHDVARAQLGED
# experiment: holdup assay
# Parameters: key: below the threshold = too weak to quantify, mostly under pKd 3.1 to 4
# measurement conditions: plain residues with an end cap or a label only (N-terminal biotin on a linker: ado-ado)
Let's look at some binders and their measured pKd.
Please reply with the value in numeric form only.

Some binders with known pKd results, for comparison:
[
  {
    "binder": "GFGEERESIL [KIDINS220, Q9ULH0]",
    "reading": 3.77
  },
  {
    "binder": "TETASVCTKV [SLC23A1, Q9UHI7]",
    "reading": 4.53
  },
  {
    "binder": "FVHPILQSAV [PRKCA, P17252]",
    "reading": 3.78
  }
]

In the following, a different binder is considered.
For EEPEERHTEL [CES2, O00748] , what is its reported pKd?
4.09
